Cited source: ChEMBL document CHEMBL1649119

assay_overview: Apparent volume of distribution in old healthy human at 4 mg/kg, iv administered as single dose 30 mins infusion
Type: ADME, organism-based
Parameters: dose 4 mg/kg, route intravenous
measurement_setup: in vivo

- molecular_string: "CCCCCCCCCC(=O)N[C@@H](Cc1c[nH]c2ccccc12)C(=O)N[C@H](CC(N)=O)C(=O)N[C@@H](CC(=O)O)C(=O)N[C@@H]1C(=O)NCC(=O)N[C@@H](CCCN)C(=O)N[C@@H](CC(=O)O)C(=O)N[C@H](C)C(=O)N[C@@H](CC(=O)O)C(=O)NCC(=O)N[C@H](CO)C(=O)N[C@@H]([C@H](C)CC(=O)O)C(=O)N[C@@H](CC(=O)c2ccccc2N)C(=O)O[C@@H]1C"
  Vd (L/kg): 0.17
